Sourced from patent US20240174605A1

Biological target: OX1R (Homo sapiens, UniProt O43613)
Sequence (O43613 whole entry): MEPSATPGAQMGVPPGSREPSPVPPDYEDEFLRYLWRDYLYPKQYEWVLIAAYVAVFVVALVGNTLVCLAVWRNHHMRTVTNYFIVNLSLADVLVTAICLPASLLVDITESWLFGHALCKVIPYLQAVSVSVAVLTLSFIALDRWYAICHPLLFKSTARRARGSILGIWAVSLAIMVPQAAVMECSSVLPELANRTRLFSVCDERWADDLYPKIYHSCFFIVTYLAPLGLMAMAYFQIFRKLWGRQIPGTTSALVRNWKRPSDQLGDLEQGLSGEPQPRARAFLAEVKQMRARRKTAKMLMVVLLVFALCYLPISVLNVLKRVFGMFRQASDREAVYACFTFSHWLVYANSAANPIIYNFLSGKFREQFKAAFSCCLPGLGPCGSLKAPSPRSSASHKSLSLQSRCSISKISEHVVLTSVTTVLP
Experiment: OX1R calcium mobilization assay
Format: cell-based
Set-up: host or cells: CHO RD-HGA16 cells
Conditions: CHO RD-HGA16 cells expressing human OX1, calcium mobilization; read-out: EC50 (OX1)
Documented EC50 across a set of compounds

Consider the reported EC50 for these compounds:
compound	system_under_test	result_value
COc1ccc(-c2cccc(C(C)C)c2)cc1S(=O)(=O)Nc1cccc(NCCNC(=O)c2ccccc2N(C)C)c1 [Compound 6]	OX1R (Homo sapiens, UniProt O43613)	> 10 µM
CCN(CC)C(=O)c1cccc(-c2ccc(OC)c(S(=O)(=O)Nc3cccc(NCCNC(=O)c4ccccc4N(C)C)c3)c2)c1 [Compound 5]	OX1R (Homo sapiens, UniProt O43613)	0.737 µM
COc1ccc(-c2cccc(C(=O)N(C)C)c2)cc1S(=O)(=O)Nc1cccc(N2CCN(C(=O)c3cccc(C)c3)CC2)c1 [Compound 18]	OX1R (Homo sapiens, UniProt O43613)	> 10 µM
COc1ccc(-c2cccc(N(C)C)c2)cc1S(=O)(=O)Nc1cccc(NCCNC(=O)c2ccccc2N(C)C)c1 [Compound 7]	OX1R (Homo sapiens, UniProt O43613)	> 10 µM

q: Give a short answer stating reported EC50 for CCCNC(=O)c1cccc(-c2ccc(OC)c(S(=O)(=O)Nc3cccc(NCCNC(=O)c4ccccc4N(C)C)c3)c2)c1 [Compound 4] .
a: > 10 µM

q: Give a short answer stating reported EC50 for COc1ccc(-c2cccc(C(=O)N(C)C)c2)cc1S(=O)(=O)Nc1cccc(N2CCN(C(=O)c3ccccc3N(C)C)CC2)c1 [Compound 17] .
a: > 10 µM
